# EXPERIMENTAL_PROTOCOL: In vitro cytotoxicity, MTT cell viability assay in HepG2 cells
# Type: cell-based
# PARTICULARS: human, Cytotoxicity CC50
REPORTED_METRIC: CC50 at 7 days

Study these solved cases before continuing.
COMPOUND	CC50 at 7 days
Cc1cc(NC(=O)c2ccc(C(F)(F)C(=O)NC(C)(C)CO)s2)ccc1F	> 30 µM
Nc1nc2c(s1)CN(C(=O)C(F)(F)c1cc(C(=O)Nc3ccc(F)c(Cl)c3)ccc1F)CC2	5 to 30 µM
Cc1cc(NC(=O)c2ccc(F)c(C(F)(F)C(=O)N3CCC(F)(F)CC3)c2)ccc1F	> 30 µM
O=C(Nc1ccc(F)c(F)c1)c1ccc(F)c(C(F)(F)C(=O)NC2CCCC2)c1	5 to 30 µM

Value of measured CC50 at 7 days for the entry Cc1cc(NC(=O)c2ccc(F)c(C(F)(F)C(=O)N3[C@@H]4CC[C@H]3C[C@@H](O)C4)c2)cc(F)n1 : < 5 µM

Value of measured CC50 at 7 days for the entry Cc1cc(NC(=O)c2ccc(F)c(C(F)(F)C(=O)N3CCC(O)CC3)n2)ccc1F : 5 to 30 µM

Value of measured CC50 at 7 days for the entry CO[C@H]1CC2CC[C@H](C1)N2C(=O)C(F)(F)c1cc(C(=O)Nc2ccc(F)c(C)c2)ccc1F : 5 to 30 µM

Value of measured CC50 at 7 days for the entry O=C(Nc1ccc(F)c(F)c1)c1ccc(F)c(C(F)(F)C(=O)N2CCCC(O)C2)c1 (stereo not shown) : 5 to 30 µM

Value of measured CC50 at 7 days for the entry CC(=O)NC1CCN(C(=O)C(F)(F)c2cc(C(=O)Nc3ccc(F)c(C)c3)ccc2F)CC1(C)C (stereo not shown) : 5 to 30 µM

Value of measured CC50 at 7 days for the entry O=C(Nc1ccc(F)c(F)c1)c1ccc(F)c(C(F)(F)C(=O)NCc2cccnc2)c1 : > 30 µM

Value of measured CC50 at 7 days for the entry CC(C)NC(=O)C(F)(F)c1cc(C(=O)Nc2ccc(F)c(F)c2)ccc1F : 5 to 30 µM

----------
# EXPERIMENTAL_PROTOCOL: In vitro cytotoxicity, MTT cell viability assay in HepG2 cells
# Assay type: cell-based
# PARTICULARS: human, Cytotoxicity CC50
Readings of CC50 at 7 days for the listed molecules

Study these solved cases before continuing.
MOLECULE	RECORDED_VALUE
Cc1cc(NC(=O)c2ccc(F)c(C(F)(F)C(=O)N3CCC(NC(=O)C4CCNC(=O)C4)CC3)c2)ccc1F (stereo not shown)	5 to 30 µM
Cn1cc(C(=O)Nc2ccc(F)c(Cl)c2)cc1C(F)(F)C(=O)NCCO	> 30 µM
Cc1cc(NC(=O)c2ccc(F)c(C(F)(F)C(=O)N3CCc4nc(N)sc4C3)c2)ccc1F	5 to 30 µM
Cc1cc(NC(=O)c2ccc(F)c(C(F)(F)C(=O)N3C4CC[C@@H]3C[C@@H](C(=O)N3CCOCC3)C4)c2)ccc1F	> 30 µM
Cn1cc(NC(=O)c2ccc(F)c(C(F)(F)C(=O)N3[C@@H]4CC[C@H]3C[C@H](O)C4)c2)cn1	> 30 µM

Value of measured CC50 at 7 days for the entry Cc1cc(NC(=O)c2ccn(C)c2C(F)(F)C(=O)NC(C)C(F)(F)F)ccc1F (stereo not shown) : > 30 µM

Value of measured CC50 at 7 days for the entry Cc1cc(NC(=O)c2ccc(F)c(C(F)(F)C(=O)N3CCC(O)CC3)c2)cc(F)c1F : 5 to 30 µM

Value of measured CC50 at 7 days for the entry Cc1cc(NC(=O)c2ccc(F)c(C(F)(F)C(=O)N3[C@H](C)CNC[C@@H]3C)c2)ccc1F : 5 to 30 µM

Value of measured CC50 at 7 days for the entry CC(C)(CO)NC(=O)C(F)c1cc(C(=O)Nc2ccc(F)c(F)c2)ccc1F (stereo not shown) : 5 to 30 µM

Value of measured CC50 at 7 days for the entry Cc1cc(NC(=O)c2cc(C(F)(F)C(=O)NC(C)(C)CO)n(C)c2)ccc1F : > 30 µM

Value of measured CC50 at 7 days for the entry Cc1cc(NC(=O)c2ccc(F)c(C(F)(F)C(=O)N3C4CC[C@@H]3C[C@@H](O)C4)c2)cc(F)c1F : 5 to 30 µM

Value of measured CC50 at 7 days for the entry O=C(Nc1cc(F)c(F)c(F)c1)c1ccc(F)c(C(F)(F)C(=O)N2CCC(O)CC2)c1 : 5 to 30 µM

Value of measured CC50 at 7 days for the entry O=C(Nc1ccc(F)c(F)c1)c1ccc(F)c(C(F)(F)C(=O)N[C@H]2CCOC2)c1 : 5 to 30 µM

----------
# EXPERIMENTAL_PROTOCOL: In vitro cytotoxicity, MTT cell viability assay in HepG2 cells
# Type: cell-based
# PARTICULARS: human, Cytotoxicity CC50
Readings of CC50 at 7 days for the listed compounds

COMPOUND	RECORDED_VALUE
Cc1cc(NC(=O)c2ccc(F)c(C(F)(F)C(=O)N3C4CC[C@@H]3C[C@@H](NS(C)(=O)=O)C4)c2)ccc1F	< 5 µM
Cc1cc(NC(=O)c2ccc(F)c(C(F)(F)C(=O)N3CCC(NC(=O)CN4CCC(O)CC4)C(C)(C)C3)c2)ccc1F (stereo not drawn)	5 to 30 µM
Cc1cc(NC(=O)c2cc(C(F)(F)C(=O)N3[C@@H]4CC[C@H]3C[C@H](O)C4)c(F)cc2F)ccc1F	> 30 µM
Cc1cc(NC(=O)c2cc(C(O)(C(=O)NC(C)(C)C)C(C)C)cn2C)ccc1F (stereo not drawn)	> 30 µM

Value of measured CC50 at 7 days for the entry Cc1cc(NC(=O)c2ccc(F)c(C(F)(F)C(=O)N3[C@@H]4CC[C@H]3C[C@H](O)C4)c2)cc(F)n1 : < 5 µM

Value of measured CC50 at 7 days for the entry Cc1cc(NC(=O)c2ccc(F)c(C(F)(F)C(=O)N3CCC(O)CC3(C)C)c2)ccc1F (stereo not drawn) : > 30 µM

Value of measured CC50 at 7 days for the entry O=C(Nc1ccc(F)c(F)c1)c1ccc(F)c(C(F)(F)C(=O)NC2CCCCC2)c1 : 5 to 30 µM

----------
Readings of CC50 at 7 days for the listed compounds
# EXPERIMENTAL_PROTOCOL: In vitro cytotoxicity, MTT cell viability assay in HepG2 cells
# Format: cell-based
# PARTICULARS: human, Cytotoxicity CC50
# Description: To evaluate antiviral selectivity, the cytotoxic activity of each compound was determined using a standard cell viability assay performed on the parental HepG2 cell line. Cell viability was determined by measuring the conversion of 3-(4,5-dimethylthiazol-2-yl)-2,5-diphenyltetrazolium bromide (MTT) to the insoluble formazan salt crystal that occurs in live cells. […] All absorbance values were converted to a percentage of the signal obtained from the vehicle treated controls. […]

COMPOUND	CC50 at 7 days
Cc1cc(NC(=O)c2ccc(F)c(C(F)(F)C(=O)N3CCn4nncc4C3)c2)ccc1F	5 to 30 µM
CC(C)(C)NC(=O)C(F)(F)c1cc(C(=O)Nc2ccc(F)c(F)c2)ccc1F	5 to 30 µM
Cc1cc(NC(=O)c2cc(C(F)(F)C(=O)N3[C@@H]4CC[C@H]3C[C@H](O)C4)ccc2F)ccc1F	5 to 30 µM
Cc1cc(NC(=O)c2ccc(N)c(C(F)(F)C(=O)N3CCC(O)CC3)c2)ccc1F	5 to 30 µM
N#Cc1cc(NC(=O)c2ccc(F)c(C(F)(F)C(=O)N3CCC(O)CC3)c2)ccc1F	> 30 µM

Value of measured CC50 at 7 days for the entry O=C(Nc1ccc(F)c(F)c1)c1ccc(F)c(C(F)(F)C(=O)N2CC[C@H](CO)C2)c1 : 5 to 30 µM

Value of measured CC50 at 7 days for the entry Cc1cc(NC(=O)c2ccc(F)c(C(F)(F)C(=O)N3CCC(O)(CO)CC3)c2)cc(F)c1F : 5 to 30 µM

Value of measured CC50 at 7 days for the entry Cc1cc(NC(=O)c2ccc(F)c(C(F)(F)C(=O)N3CC4CCC(C3)C4O)c2)ccc1F (stereo not shown) : 5 to 30 µM

----------
# EXPERIMENTAL_PROTOCOL: In vitro cytotoxicity, MTT cell viability assay in HepG2 cells
# Format: cell-based
# PARTICULARS: human, Cytotoxicity CC50
REPORTED_METRIC: CC50 at 7 days

Study these solved cases before continuing.
COMPOUND	REPORTED_METRIC	RECORDED_VALUE
Cc1cc(NC(=O)c2ccc(F)c(C(F)(F)C(=O)N3CCC(O)C(CO)C3)c2)ccc1F (stereo not drawn) [Example 69]	CC50 at 7 days	> 30 µM
Cc1cc(NC(=O)c2cc(F)cc(C(F)(F)C(=O)N3[C@@H]4CC[C@H]3C[C@H](O)C4)c2)ccc1F [Example 219]	CC50 at 7 days	5 to 30 µM

Value of measured CC50 at 7 days for the entry COc1ccccc1NC(=O)C(F)(F)c1cc(C(=O)Nc2ccc(F)c(F)c2)ccc1F [Example 21] : 5 to 30 µM

Value of measured CC50 at 7 days for the entry Cc1cc(NC(=O)c2ccc(F)c(C(F)(F)C(=O)N3CCC(NC(=O)OC(C)(C)C)CC3)c2)ccc1F [Example 229] : 5 to 30 µM

Value of measured CC50 at 7 days for the entry Cc1cc(NC(=O)c2ccc(F)c(C(F)(F)C(=O)N3CCC(O)C(F)C3)c2)ccc1F (stereo not drawn) [Example 162] : 5 to 30 µM

Value of measured CC50 at 7 days for the entry Cc1cc(NC(=O)c2ccc(F)c(C(F)(F)C(=O)N3CCC(O)(CO)CC3)c2)ccc1F [Example 75] : 5 to 30 µM

Value of measured CC50 at 7 days for the entry Cc1cc(NC(=O)c2ccc(F)c(C(F)(F)C(=O)NC34CC5CC(CC3C5)C4)c2)ccc1F [Example 271] : 5 to 30 µM

Value of measured CC50 at 7 days for the entry Cc1cc(NC(=O)c2cccc(C(F)(F)C(=O)N3CCC(O)CC3)c2Cl)ccc1F [Example 168] : 5 to 30 µM

Value of measured CC50 at 7 days for the entry Cn1ccc(C(=O)Nc2ccc(F)c(Cl)c2)c1C(F)(F)C(=O)NOC(C)(C)C [Example 145] : > 30 µM

Value of measured CC50 at 7 days for the entry CC(C)n1cc(NC(=O)c2ccc(F)c(C(F)(F)C(=O)N3[C@@H]4CC[C@H]3C[C@@H](O)C4)c2)cn1 [Example 184] : > 30 µM
